experiment: ATG_PXRE_CIS: Attagene CIS-FACTORIAL HepG2 Assay for human Pregnane X Receptor Element (PXRE) (AID 2282957); conditions: HepG2 Attagene CIS-FACTORIAL PXRE reporter, mRNA; actives raise or lower the signal
The source made the active and inactive calls. The calls were made as follows: active = hit-call score of the fitted dose curve at least 0.9, where 1 is the maximum; inactive = score below 0.9.
parameter.measured: AC50

compound | AC50
CCCCC(CC)C(=O)OCCOCCOCCOCCOC(=O)C(CC)CCCC (stereo unspecified) | 27.5 µM (active)
CCOC(=O)c1nc(C(Cl)(Cl)Cl)n(-c2ccc(Cl)cc2Cl)n1 | 2.06 µM (active)
O=C(Nc1ccc(Cl)c(Cl)c1)c1cc(Cl)cc(Cl)c1O | 1.49 µM (active)
COc1cc(OC)nc(NC(=O)NS(=O)(=O)Nc2ccccc2C(=O)N(C)C)n1 | inactive
CC(=O)Nc1ccc(O)cc1 | inactive

Return reported AC50; argument: CCCCCCC(C)(C)C(=O)O
27.4 µM (active)

What do you get for CCCCCCOC(=O)c1ccc(O)cc1 ?
13 µM (active)

Ok, now OCC(F)(F)C(F)(F)C(F)(F)C(F)(F)C(F)(F)C(F)(F)C(F)(F)C(F)(F)C(F)(F)C(F)(F)C(F)(F)F
inactive

Now this one: COc1ccccc1NC(=O)c1cc2ccccc2cc1O
1.63 µM (active)

# iterate: CCCCCCCCC1CCC(=O)O1 (stereo unspecified)
inactive

====

read-out: TIMP metallopeptidase inhibitor 2 (TIMP2), TIMP2 (gene 7077); assay: BSK_KF3CT_TIMP2: BioMAP Diversity Plus: KF3CT Assay for TIMP metallopeptidase inhibitor 2 (TIMP2) Biomarker Activity (AID 2283071); conditions: primary human keratinocytes with fibroblasts; actives raise or lower the signal
Active and inactive are the calls of the source. Rule for the calls: active = hit-call score of the fitted dose curve at least 0.9, where 1 is the maximum; inactive = score below 0.9.

molecule | outcome
CCC(C)c1ccccc1O (stereo not drawn) | inactive
OCCN1CN(CCO)CN(CCO)C1 | inactive
O=S(=O)(O)C(F)(F)C(F)(F)C(F)(F)C(F)(F)C(F)(F)C(F)(F)C(F)(F)C(F)(F)C(F)(F)C(F)(F)F | inactive

====

assay: ATG_NRF2_ARE_CIS: Attagene CIS-FACTORIAL HepG2 Assay for human Nuclear Factor Erythroid 2 Related Factor 2 (NFR2) response to Antioxidant Response Elements (ARE) (AID 2282992); conditions: HepG2 Attagene ARE/NRF2 reporter, transcription factor activity; actives raise or lower the signal
The source made the active and inactive calls. Rule for the calls: active = hit-call score of the fitted dose curve at least 0.9, where 1 is the maximum; inactive = score below 0.9.
Thanks in advance; please answer with one of these: Y = active, N = inactive

# outcome recorded in this test, key = CC1CNCC(C)O1 (configuration not stated)
N

Next up: CCCCCCCCC(C)=O
N

Now the compound O=C(O)C(=O)O
N

Another compound: O=S(=O)(c1ccc(OCc2ccccc2)cc1)c1ccccc1O
Y

Also check CC[N+](CC)(CC)Cc1ccccc1
N

Next record, please: c1ccc2c(c1)CCC2
N

Then CCCCC(CC)C(=O)OCCOCCOCCOCCOC(=O)C(CC)CCCC (configuration not stated) ?
Y

Do the same for C=CC(=O)OCCN(CC)CC please
Y

Lookup c1cc[nH]c1
N

Now the same for OCC1CCC(CO)CC1 (configuration not stated)
N

// same read-out, input: O=CC(F)(F)C(F)(F)C(F)(F)C(F)F
N

Moving on to FC(F)(F)N1C(F)(F)C(F)(F)OC(F)(F)C1(F)F
N

====

target: Retinoic acid receptor alpha (Homo sapiens); assay: ATG_DR5_RAR_CIS: Attagene CIS-FACTORIAL HepG2 Assay for human Retinoic Acid Receptor Alpha (RARE), DR5 submotif (AID 2282934); details: HepG2 Attagene cis-factorial RARE DR5 reporter, mRNA; actives raise or lower the signal
The source made the active and inactive calls. Rule for the calls: active = hit-call score of the fitted dose curve at least 0.9, where 1 is the maximum; inactive = score below 0.9.
I would appreciate it if you answered using one of these outcomes: active, inactive

Please state the recorded outcome for this compound: CCOC=O
inactive

Same thing, different compound: COc1cc(OC)nc(NC(=O)NS(=O)(=O)Nc2ccccc2C(=O)N(C)C)n1
inactive

Request: O=C(c1ccccc1)c1ccccc1
inactive

Follow-up entry: Cn1sccc1=O
active

Further, for FCOC(C(F)(F)F)C(F)(F)F ?
inactive

Param item: CC(C)C=O
inactive

====

target: Heat shock factor protein 1 (Homo sapiens) (UniProt Q00613); experiment: ATG_HSE_CIS: Attagene CIS-FACTORIAL HepG2 Assay for human Heat Shock Transcription Factor 1 (HSE) (AID 2282953); conditions: HepG2 HSE cis-reporter, Attagene RNA transcription; actives raise or lower the signal
Sequence (Q00613 whole entry, looked up): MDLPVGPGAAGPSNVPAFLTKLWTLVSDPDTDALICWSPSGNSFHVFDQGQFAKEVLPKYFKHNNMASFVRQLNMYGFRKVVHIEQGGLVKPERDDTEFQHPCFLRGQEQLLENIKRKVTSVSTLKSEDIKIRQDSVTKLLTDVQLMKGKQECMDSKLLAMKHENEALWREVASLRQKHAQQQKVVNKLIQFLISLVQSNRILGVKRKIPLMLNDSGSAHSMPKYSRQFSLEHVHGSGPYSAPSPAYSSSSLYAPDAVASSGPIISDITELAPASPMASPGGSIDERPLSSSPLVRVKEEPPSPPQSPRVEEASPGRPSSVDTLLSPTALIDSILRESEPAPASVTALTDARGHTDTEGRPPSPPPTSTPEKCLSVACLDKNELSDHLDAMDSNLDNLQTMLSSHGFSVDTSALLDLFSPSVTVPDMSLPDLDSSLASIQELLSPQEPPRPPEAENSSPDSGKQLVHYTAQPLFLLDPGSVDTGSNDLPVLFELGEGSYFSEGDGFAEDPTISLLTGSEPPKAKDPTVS
Activity calls are given as the source filed them. Rule for the calls: active = hit-call score of the fitted dose curve at least 0.9, where 1 is the maximum; inactive = score below 0.9.
parameter.measured: outcome

Example cases with answers are listed next.
compound | parameter.measured | reading
Oc1ccc(Cc2ccccc2O)cc1 | outcome | inactive
CC(C)CCOCCC(C)C | outcome | inactive
CCC(C)c1ccccc1O (stereo not given) | outcome | inactive
Cc1[nH]nc2c1N=C(c1ccccc1Cl)c1cc([N+](=O)[O-])ccc1N2 | outcome | inactive
O=C(O)CCC(F)(F)C(F)(F)C(F)(F)C(F)(F)C(F)(F)C(F)(F)F | outcome | inactive
CCCCC(CC)C(=O)O (stereo not given) | outcome | inactive

Which outcome is listed for CN(CCO)S(=O)(=O)C(F)(F)C(F)(F)C(F)(F)C(F)(F)C(F)(F)C(F)(F)C(F)(F)C(F)(F)F ?
inactive

Next record, please: O=S(=O)(O)c1ccc2cc(O)ccc2c1
inactive

Try the compound NCc1cccc(CN)c1
inactive

Further, for O=C1OC2(c3ccccc31)c1cc(I)c(O)c(I)c1Oc1c2cc(I)c(O)c1I ?
inactive

====

Target: Peroxisome proliferator-activated receptor gamma (Homo sapiens)
Assay: ATG_PPARg_TRANS: Attagene TRANS-FACTORIAL HepG2 Assay for human Peroxisome Proliferator-activated Receptor-gamma (PPARg) (AID 2283007)
Experimental: ATG_TRANS is a cell-based, multiplexed-readout assay that uses HepG2, a human liver cell line, with measurements taken at 24 hours after chemical dosing in a 24-well plate.ATG_PPARg_TRANS is one of 30 assay component(s) measured or calculated from the ATG_TRANS assay. […] This assay endpoint, ATG_PPARg_TRANS, was analyzed in the positive analysis fitting direction relative to DMSO as the negative control and baseline of activity. […]
Records with an inconclusive call do not appear. Activity calls are given as the source filed them. How the source made its calls: active means hit-call score of the fitted dose curve at least 0.9, where 1 is the maximum; inconclusive means response in the unintended direction; inactive means score below 0.9.
Give your call using only these classes: yes (1) (active), no (0) (inactive)

Which outcome was assigned to O=C(OC(=O)C(F)(F)C(F)(F)F)C(F)(F)C(F)(F)F in this test?
no (0)

Repeat for the following molecule: CNNCc1ccc(C(=O)NC(C)C)cc1
no (0)

What do you have for CCC(=O)C=Cc1ccc(OC)cc1 ?
yes (1)

Another molecule: Cc1cc(Cc2cc(C)cc(C(C)(C)C)c2O)c(O)c(C(C)(C)C)c1
yes (1)

Please answer likewise for CCCCCCOC(=O)c1ccc(O)cc1
yes (1)

Also O=C(NCc1ncc(C(F)(F)F)cc1Cl)c1c(Cl)cccc1Cl , if possible.
yes (1)

Request: O=CC(F)(F)C(F)(F)C(F)(F)F
no (0)

Next molecule: O=C(Nc1cccc([N+](=O)[O-])c1)c1cc2ccccc2cc1O
yes (1)

Let us now turn to COc1cc(OC)nc(NC(=O)NS(=O)(=O)Nc2ccccc2C(=O)N(C)C)n1
no (0)

Would you mind doing Brc1ccc(Oc2ccc(Br)cc2Br)cc1 as well?
no (0)

Same question for O=C(C=C(O)C(F)(F)F)C(F)(F)F please.
no (0)

Same lookup for O=S(=O)(c1ccc(OCc2ccccc2)cc1)c1ccccc1O , please.
yes (1)

Param item: C=CC(=O)OCCN(CC)CC
no (0)

====

assay: ATG_PXRE_CIS: Attagene CIS-FACTORIAL HepG2 Assay for human Pregnane X Receptor Element (PXRE) (AID 2282957); details: HepG2 Attagene CIS-FACTORIAL PXRE reporter, mRNA; actives raise or lower the signal
Active and inactive are the calls of the source. The calls were made as follows: active = hit-call score of the fitted dose curve at least 0.9, where 1 is the maximum; inactive = score below 0.9.
Give your call using only these classes: active, inactive

Each compound tested received a call. Report the one for C=CC(=O)OCCN(CC)CC .
active

// query: CC(C)(c1ccc(Oc2ccc(N)cc2)cc1)c1ccc(Oc2ccc(N)cc2)cc1
active

Please answer likewise for COC(=O)CC(C(C)=O)C(=O)OC (stereo unspecified)
inactive

Try this compound next: CCCCCCCCCCCCOC(=O)c1cc(O)c(O)c(O)c1
active

Moving on to the next compound: CN(CCO)S(=O)(=O)C(F)(F)C(F)(F)C(F)(F)C(F)(F)C(F)(F)C(F)(F)C(F)(F)C(F)(F)F
inactive

What do you have for COC(=O)C(F)(F)C(F)(F)C(F)(F)C(F)(F)C(F)(F)F ?
inactive

Can you check O=P(O)(O)CCC(F)(F)C(F)(F)C(F)(F)C(F)(F)C(F)(F)C(F)(F)C(F)(F)C(F)(F)F next?
inactive

Likewise for CCCCCCc1ccc(N)cc1 ?
inactive

Another compound to look at: CCc1cccc(CC)c1N(COC)C(=O)CS(=O)(=O)O
active

Another: Cc1ccccc1OCC(=O)O
inactive

Now consider C=COC(=O)C(C)(C)CCCCCC and answer again.
active

Next up: COCC1CCC(CO)CC1 (stereo unspecified)
inactive

Can you check CCC(=O)O next?
inactive

Would you kindly repeat that for CCCCN(C)C ?
active

Next: C/C=C/C(=O)C1=C(C)CCCC1(C)C
active

Thanks! And CC(C)[C@@H]1CC[C@@H](C)C[C@H]1O ?
inactive

Repeat for the following compound: O=C1OC(=O)c2cc(-c3ccc4c(c3)C(=O)OC4=O)ccc21
inactive

Request: CS(=O)(=O)c1ccc([C@@H](CC2CCCC2)C(=O)Nc2cnccn2)cc1Cl
active

Same for Nc1cc(Cl)c(-c2cc(Cl)c(N)cc2Cl)cc1Cl
active

// same read-out, input: CN(C)CCOC(c1ccccc1)c1ccccc1
active

And CC1CCC(C(=O)O)CC1 (stereo unspecified) ?
inactive
